Test system: HOP-92 NSCLC
Test: NCI tumour cell line growth inhibition, 48 h
Metric Name: GI50

# Smiles Str, GI50
records = [
    ("Cn1cc(C2=C(c3cn(C)c4cc(C(N)=O)ccc34)C(=O)NC2=O)c2ccccc21", "2.15 µM"),
]

Ask | Request - read-out GI50 | tested on HOP-92 NSCLC | molecule C[C@H]1Oc2cc(cnc2N)-c2c(nn(C)c2C#N)CN(C)C(=O)c2ccc(F)cc21
Reply | 2.54 µM

Ask | # iterate: CCCn1c(N)c(C(=O)N/N=C(/C)c2cc3cccc(OC)c3o2)sc1=S
Reply | 27.4 µM

Ask | # iterate: Cn1cnc([N+](=O)[O-])c1S(=O)(=O)Oc1ccccc1
Reply | 5.85 µM

Ask | # iterate: CCCCCCC[CH2][Sn]1([CH2]CCCCCCC)[O]C(=O)c2cccnc2[S]1
Reply | > 100 µM

====

Tested on: UO-31 renal
Test: NCI tumour cell line growth inhibition, 48 h
Metric Name: TGI

Look over these answered cases.
# Compound, TGI
rows = [
    ("COc1ccc(-c2cc(-c3ccccc3)c(C#N)c(=O)n2C2OC(CO)C(O)C(O)C2O)cc1 (stereo unspecified)", "> 100 µM"),
    ("COc1ccncc1C#Cc1cncc(C(=O)Nc2ccc(CN3CCN(C)CC3)c(C(F)(F)F)c2)c1", "> 100 µM"),
    ("Cc1ccc(-c2c3c(n(C4OC(CO)C(O)C(O)C4O)c(=S)c2C#N)CC(C)(C)CC3=O)cc1 (stereo unspecified)", "> 100 µM"),
]

Ask | Request - read-out TGI | tested on UO-31 renal | compound CCN(CC)C(=S)SS(=O)(=O)c1ccc(F)cc1
Reply | 72.5 µM

Ask | # iterate: CC(C)(C)NC(=O)N1N=C(c2ccccc2)C1c1ccccc1 (stereo unspecified)
Reply | 63.1 µM

====

Below: a set of entries, each annotated with reported TGI.
Tested on: SK-MEL-28 melanoma
Test: NCI tumour cell line growth inhibition, 48 h

Look over these answered cases.
# Molecule, Experimental Target, Reported Measurement
data = [
    ("COC1[C@@H](OC(C)=O)[C@@H](NC(=O)C(Cl)(Cl)Cl)C(I)[C@@H](N2C(=O)c3ccccc3C2=O)[C@H]1OC (some centres undefined)", "SK-MEL-28 melanoma", "> 100 µM"),
    ("O=C(NS(=O)(=O)OCC(Cl)(Cl)Cl)SCCC(F)(F)C(F)(F)C(F)(F)C(F)(F)C(F)(F)C(F)(F)F", "SK-MEL-28 melanoma", "55.7 µM"),
    ("O=C1c2ccccc2C2(O)c3cc4ccccc4cc3OC12O (centres undefined)", "SK-MEL-28 melanoma", "> 100 µM"),
]

Ask | Look up TGI for this molecule: CN1C(=O)C(CC=O)(C(C)(C)C)c2ccccc21 (centres undefined)
Reply | > 100 µM

Ask | # iterate: CC(=O)n1c2c(c(=O)n1-c1ccccc1)S(=O)CCC2 (centres undefined)
Reply | > 100 µM

Ask | # iterate: COc1cc2c(cc1O)C1C(O)C(O)C=C3CCN(C2)C31 (centres undefined)
Reply | 13.9 µM

Ask | # iterate: CCOc1ccc2nc(S/C(=C/C=C(C#N)C#N)c3ccc(C)cc3)sc2c1
Reply | > 100 µM

Ask | # iterate: COc1ccc(CCN=C2OCc3ccccc32)cc1OC
Reply | > 100 µM

Ask | # iterate: Cc1cccc(C(C)C)c1NC(=O)CC1Sc2ccccc2NC1=O (centres undefined)
Reply | > 100 µM
